The measurements presented in this section are drawn from patent US20220117911A1.

# experimentSummary: MTT cell viability assay in hCMEC/D3 cells
# Type: cell-based, human
# protocolConditions: human, hCMEC/D3 cells treated with negative (NEG) siRNA; read-out: decrease of cell viability (MTT)
# Method: To study the effects of TRPV2 agonists and antagonists and silencing TRPV2 on cell viability, the 3-(4,5-dimethyl-2-thiazolyl)-2,5-diphenyl-2-H-tetrazolium bromide assay (MTT, Sigma-Aldrich) evaluating cell mitochondrial activity and Trypan blue exclusion assay evaluating living cells were applied. […] Cell viability were analysed at 0, 24 h, 48 h, 72 h after re-distribution. […] Data are expressed as mean value±SEM. […]
reportedEndpoint: cytotoxicity at 24 h, 15 μM (%)
API: value field is a number in %; no unit string.

Q: Would you kindly share the measured cytotoxicity at 24 h, 15 μM for `C=C(C)[C@@H]1CCC(C)=C[C@H]1c1c(O)cc(CCCCC)cc1O` ?
Ans: 27

* * *

# assayedTarget: TRPV2 (Homo sapiens)
# Construct: endogenous in cells
# Sequence (Q9Y5S1 whole entry): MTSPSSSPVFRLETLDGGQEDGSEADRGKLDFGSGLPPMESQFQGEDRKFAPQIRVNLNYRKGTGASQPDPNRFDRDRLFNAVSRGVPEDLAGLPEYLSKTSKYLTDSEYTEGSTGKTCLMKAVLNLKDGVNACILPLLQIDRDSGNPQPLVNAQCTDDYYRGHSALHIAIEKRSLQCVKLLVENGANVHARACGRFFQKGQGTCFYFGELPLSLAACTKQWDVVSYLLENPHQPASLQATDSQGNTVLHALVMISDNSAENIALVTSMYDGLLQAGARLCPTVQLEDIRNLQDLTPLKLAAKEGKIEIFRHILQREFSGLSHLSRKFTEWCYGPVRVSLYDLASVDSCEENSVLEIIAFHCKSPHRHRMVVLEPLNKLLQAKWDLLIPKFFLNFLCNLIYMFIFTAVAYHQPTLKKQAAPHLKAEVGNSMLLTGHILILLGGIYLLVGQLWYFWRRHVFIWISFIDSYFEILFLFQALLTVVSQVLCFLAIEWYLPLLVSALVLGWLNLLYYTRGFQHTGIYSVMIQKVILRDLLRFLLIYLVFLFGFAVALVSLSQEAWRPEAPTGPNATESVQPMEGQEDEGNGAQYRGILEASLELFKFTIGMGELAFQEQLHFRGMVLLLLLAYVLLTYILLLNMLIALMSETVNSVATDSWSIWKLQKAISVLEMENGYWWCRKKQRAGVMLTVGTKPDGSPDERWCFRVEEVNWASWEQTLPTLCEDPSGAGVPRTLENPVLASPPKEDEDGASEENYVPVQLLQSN
# experimentSummary: Intracellular Ca2+ signal measurements (Fluo-4-AM) in hCMEC/D3 cells
# protocolConditions: 15 μM CBD, antagonist pre-treatment 5 min; read-out: IC50 of inhibition of CBD-mediated elevation of [Ca2+]i
# Description: Fluorescence measurement of intracellular Ca2+ ([Ca2+]i) concentration was performed in accordance with our optimized protocol as below: hCMEC/D3 cells grown at 100% confluence in 24-well plates were loaded with 2 μM of fluorescent marker, Fluo-4-AM (λex=496 nm, λem=516 nm, F14201, Thermo Fisher Scientific) for 45 min at 37° C. in a loading Hank's buffer (500 μL/well). […] Images of hCMEC/D3 were analysed in Fiji app running Image J software. Data are expressed as mean value±SEM. […]
reportedEndpoint: IC50 (µM)
API: value field is a number in µM; no unit string.

Q: Would you kindly share the measured IC50 for N.N.N.N.N.N.N.N.N.N.N.N.N.N.[Cl-].[Cl-].[Cl-].[Cl-].[Cl-].[Cl-].[O-2].[O-2].[Ru+3].[Ru+3].[Ru+4] [RR, ruthenium red] ?
Ans: 7.7

* * *

# experimentSummary: MTT cell viability assay in hCMEC/D3 cells
# Type: cell-based, human
# protocolConditions: human, hCMEC/D3 cells; read-out: decrease of cell viability (MTT)
# Procedure: To study the effects of TRPV2 agonists and antagonists and silencing TRPV2 on cell viability, the 3-(4,5-dimethyl-2-thiazolyl)-2,5-diphenyl-2-H-tetrazolium bromide assay (MTT, Sigma-Aldrich) evaluating cell mitochondrial activity and Trypan blue exclusion assay evaluating living cells were applied. […] Cell viability were analysed at 0, 24 h, 48 h, 72 h after re-distribution. […] Data are expressed as mean value±SEM. […]
reportedEndpoint: cytotoxicity at 24 h, 15 μM (%)
API: value field is a number in %; no unit string.

Q: Would you kindly share the measured cytotoxicity at 24 h, 15 μM for `C=C(C)[C@@H]1CCC(C)=C[C@H]1c1c(O)cc(CCCCC)cc1O` ?
Ans: 37

* * *

# experimentSummary: MTT cell viability assay in hCMEC/D3 cells
# Assay type: cell-based, human
# protocolConditions: human, hCMEC/D3 cells silenced for TRPV2 (TRPV2 siRNA); read-out: decrease of cell viability (MTT)
reportedEndpoint: cytotoxicity at 24 h, 15 μM
Include the unit right after the number.

Q: Would you kindly share the measured cytotoxicity at 24 h, 15 μM for `C=C(C)[C@@H]1CCC(C)=C[C@H]1c1c(O)cc(CCCCC)cc1O` ?
Ans: 6%
